protocol.details: LNP size and polydispersity index (PDI) by dynamic light scattering
Format: physicochemical
measurement.setup: LNP with cirRNA (SEQ ID NO: 1); in nm (unit assumed)
Binned Size; ranges: 0: < 90; 1: ≥ 90 and < 100; 2: ≥ 100

Sample answers from the record:
{"compound": "CCCCCCCC/C=C\\CCCCCCCCN(CCCCCCCCOC(=O)C(CCCCCC)CCCCCCCC)CCOC(=O)NCCN1CCCCC1 (centres unmarked)", "discrete.label": 0}
{"compound": "CCCCCCCCCCCOC(=O)CCCCCN(CCCCCC(=O)OCCCCCCCCCCC)CCOC(=O)NCCN(C)C", "discrete.label": 0}
{"compound": "CCCCC/C=C\\C/C=C\\CCCCCCCCN(CCCCCCCC/C=C\\C/C=C\\CCCCC)CCOC(=O)NCCN(C)C", "discrete.label": 2}
{"compound": "CCCCCCCC/C=C\\CCCCCCCCN(CCCCCCCCOC(=O)C(CCCCCC)CCCCCCCC)CCOC(=O)NCCN1CCCC1 (centres unmarked)", "discrete.label": 1}
{"compound": "CCCCC/C=C\\C/C=C\\CCCCCCCCN(CCCCCC(=O)OCC(CCCCCCCC)CCCCCCCCCC)CCOC(=O)NCc1ncc[nH]1 (centres unmarked)", "discrete.label": 2}

# ---- query compound ----
GET /class?item= CCCCCCCCC(CCCCCC)C(=O)OCCCCCCCCN(CCCCCCCCOC(=O)C(CCCCCC)CCCCCCCC)CCCOC(=O)NCCN1CCCCC1 (centres unmarked)
2
